Just for reference, patent US20240101645A1 is where these values come from.

Below, each entry is listed alongside its reported Mean IC50, pSV neutralization.
biological target: SARS-CoV-2 S on pseudovirions (Wuhan Hu-1 / IL1/2020, last 18 amino acids removed) (SARS-CoV-2, UniProt P0DTC2 14-1273); experiment: cell-based or functional assay
Write down the numeric answer in µg/ml and omit the unit.

These recorded examples may help you get a feel for the data.
binder="COV_1201 (antibody, V domains shown, human IgG1) VH: QVQLVQSGAEVKKPGASMKVSCKASGYTFTGYYIHWVRQAPGQGLEWMGRINPNSGGTNYAQKFQGRVTMTRDTSISTAYMELSRLRSDDTAVYYCAREYYYVPYGMDVWGQGTTVTVSS VL: QSALTQPASVSGSPGQSITISCTGTSSDVGGYNFVSWYQHHPGKAPKLMIYEVSNRPSGVSNRFSGSKSGNTASLTISGLQAEDEADYYCSSYTSSSTYVFGTGTKVTVL" measure_name="Mean IC50, pSV neutralization" experimental_value=0.09
binder="COV_2057 (antibody, V domains shown, human IgG1) VH: EVQLVQSGAEVKKPGESLKISCKGSGYSFISYWIAWVRQMPGKGLEWMGIIYPGDSDTTYSPSFQGQVTISADKSISTAYLQWSSLKASDTAIYYCARLLYYSDSSPLDSWGQGTLVTVSS VL: DIQMTQSPSSLSASVGDRVTITCRASQSISTYLNWYQQKPGKAPNLLIYAASSLQSGVPSRFSGSGSGTDFTLTISSLQPEDFATYYCQQSHSTPRTFGPGTKVDIK" measure_name="Mean IC50, pSV neutralization" experimental_value=0.97

Turning to the following binder.
What does the record list as Mean IC50, pSV neutralization for COV_2056 (SEQ ID NO:432/437) (antibody, V domains shown) VH: EVQLVESGGGVVQPGRSLRLSCAASGFTFSIYGMHWVRQAPGKGLEWVALISYDGTNKYYADSVKGRFSISRDDSKNTLYLQMNSLRPEDTAVYYCAKVLMMGDSSGFSLGDAFDIWGQGTMVTVSS VL: DIQMTQSPSSVSASVGDRVTITCRASQGISNWLAWYQQKPGKAPKLLIYAASSLQSGVPSRFSGSVSGTDFTLTISSLQPEDFATYYCQQANSFPLTFGGGTKVDIK ?
13.2
